Tested on: Lipogenic Cells
Experiment: Effect of fatty acids, lipogenic cells (Table 2)
Assay type: cell-based
assayMetric: Effect of Fatty Acids: Lipogenic Cells

[[record]]
compound = "CCC=CCC=CCC=CCCCCCCCC(=O)O"
reading = "No effect"

[[record]]
compound = "CCC=CCC=CCC=CCC=CCC=CCC=CCCC(=O)O [ω-3 Docosahexaenoic acid, 4,7,10,13,16,19-docosahexaenoic acid, reference compound]"
reading = "No effect"


----------
System: Lipogenic Cells
Test: Effect of fatty acids, lipogenic cells (Table 2)
Type: cell-based
assayMetric: Effect of Fatty Acids: Lipogenic Cells

[[record]]
smilesrecord = "CCCCCCCCC=CCCCCCCCC(=O)O"
assaymetric = "Effect of Fatty Acids: Lipogenic Cells"
reading = "No effect"

[[record]]
smilesrecord = "CCCCCC=CCC=CCC=CCCCCC(=O)O"
assaymetric = "Effect of Fatty Acids: Lipogenic Cells"
reading = "No effect"

